Biological target: BTK (Homo sapiens, UniProt Q06187)
Sequence (Q06187 whole entry): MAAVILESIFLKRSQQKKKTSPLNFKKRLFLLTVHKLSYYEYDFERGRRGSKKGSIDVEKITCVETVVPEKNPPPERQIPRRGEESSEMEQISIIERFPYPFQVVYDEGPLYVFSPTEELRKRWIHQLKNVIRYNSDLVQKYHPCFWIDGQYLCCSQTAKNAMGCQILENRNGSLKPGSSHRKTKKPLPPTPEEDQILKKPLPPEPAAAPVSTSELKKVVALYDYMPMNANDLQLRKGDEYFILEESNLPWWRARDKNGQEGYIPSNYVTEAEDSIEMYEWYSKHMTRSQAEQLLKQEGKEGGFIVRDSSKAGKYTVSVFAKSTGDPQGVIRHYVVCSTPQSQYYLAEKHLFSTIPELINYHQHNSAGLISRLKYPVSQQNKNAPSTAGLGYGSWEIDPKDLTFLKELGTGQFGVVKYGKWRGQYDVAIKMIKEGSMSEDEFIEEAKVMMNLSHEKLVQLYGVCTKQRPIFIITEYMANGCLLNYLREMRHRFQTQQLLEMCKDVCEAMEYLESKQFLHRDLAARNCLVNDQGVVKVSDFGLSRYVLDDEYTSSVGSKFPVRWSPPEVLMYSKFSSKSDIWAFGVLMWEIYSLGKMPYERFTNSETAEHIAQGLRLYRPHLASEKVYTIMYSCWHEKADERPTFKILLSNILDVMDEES
Assay: BTK degradation, DC50 and Dmax of Table 1 (cell line not given)
Type: cell-based
Parameters: endogenous in cells
quantity_name: Dmax

// known answers, use as guide
Nc1ncnc2c1c(-c1ccc(Oc3ccccc3)cc1)nn2C1CCN(C(=O)N2CCN(CC3CCN(c4ccc5c(c4)C(=O)N(C4CCC(=O)NC4=O)C5=O)CC3)CC2)CC1 (stereo not drawn) [Compound 87]; > 90%
Nc1ncnc2c1c(-c1ccc(Oc3ccccc3)cc1)nn2[C@@H]1CCCN(C(=O)N2CCN(CCCN3CCC(c4ccc5c(c4)CN(C4CCC(=O)NC4=O)C5=O)CC3)CC2)C1 (stereo partly drawn) [Compound 112]; > 75%

Consider the additional molecule presented here.
// query What does the data say about its Dmax? Entry: Nc1ncnc2c1c(-c1ccc(Oc3ccccc3)cc1)nn2[C@@H]1CCCN(C2CCN(C(=O)N3CCN(CC4CCN(c5ccc6c(c5)C(=O)N(C5CCC(=O)NC5=O)C6=O)CC4)CC3)CC2)C1 (stereo partly drawn) [Compound 171]
// result > 90%

Taken from patent US12139492B2.
